test: label from the status in PepcDB records
quantity kind: protein production

// known answers, use as guide
{"macromolecule sequence": "MPDYVYGDSMVLKLTLEYSSVLLVSLICCIIAFTSTYTVMPRLINKLKEANVVGNDIHKISKPIVAEMGGIGILFGFTIGMFIGMYCFPELQYELMVTLLVILLVGIVGMVDDLVRLSSREKLFLLFLAGLPIIWVAPPKVGILYMIMMPVAVSIASNLTNMLAGLNGIESGLGSIAMTALTASCIIMGKYDVSIITMAMLGALLAFLMYNRYPSRVFPGDVGTLIIGACIASVAFIGRVKIIALIVLLPNIIDGILKFYSAGVVERHKHRPTEIAEDGKLIAPPEGFNSLIRWILRRPMTEKKVVMIVWSIGMFFGFLGVLLAFILPLDPF", "protein production": "failed"}
{"macromolecule sequence": "MTMSPSQDQTENTDMLTEIAILYYQEGATQEEISKKFGLSRAKVGRMLRKAREEGIVEITVKFHPVYSVQLEQKLVEKFNLKRALISLDQPNTNEQRKQVAALVSSYLNNNLQEGMAVAVGQGQNVAAVADHAGIVTQRNARFVSAIGGTHRSGDIINADHICRRLAKKYGGSSETLYAPAYVNDPSLRSAFMEHATIKETLSQARKAEFALVGIGDMDENSHMVKLGFFTPKEFVEARLNDGIVGDIGGFDFFKLDGTDADTLMRGRVIGLEMEDLRQIPNVVAMASESRKALSIMGALRTGVIDVLATSVSCAMALLNLAENEE", "protein production": "not failed"}
{"macromolecule sequence": "MVGIRKRKDFFEDFGSELFDNLEEMIEALLEEMGDSVPFVYGFSIIHRPGEDPELREFGNVPEYPQQEENFFPSETKEPLIDIFENENMVHVLAEFPEIEKEDILLHATGQHLEIKVLGLSEYTEDVDLPVRVDPKSAKASYKNGVLEVTFRRCSEESPVEIEINLEHHHHHH", "protein production": "not failed"}
{"macromolecule sequence": "MSKHVNWSGVFPAVTTQFNADFSVNLEETHTVISNLVRDGVSGLVVCGSVGENTSLTIEEKMAVTEVAKDASGGRVPVICGIAEFTSAGAAKVAKAVERVGVDGIMVMPALVYSSKPHETAEHFRSVASGTDLPVMVYNNPPIYRNDVTPDILVSLADCENIVCFKDSSGDTRRFIDVRNQVGERFILFAGLDDVVLESVAVGAQGWISGMSNVFPKEGETIFRLARAGRFAEAMPIYEWLMPILHLDARPDLVQCIKLCEQLAGRGSALTRPPRLALRGADREHVERIMAKALA", "protein production": "failed"}

Now, please, on to the next sequence.
// query I am curious: what protein production value has been reported for `MVSTVRTVLGDVLPEHLGVCDAHDHLFFGSPQLPGQELRDASAARAELAAFREQGGGSVVQWTPYGLGRRAADLPLLSRDTGVHVVAATGLHQAVHYDAGTLAELRGRLADTFVAELTTGIGPSGVRAGLIKVAGGFHALDAHARWTMTAAAEAHHATGAPIAVHLELGTGALDVLDLLCGESGVPPHRVILGHLNRSPDFTVHRQAAEAGAFLAFDGPSRANHATDWRMPDALRALAEAGFGHRLLLGGDTTTAAARSVNGGPGLPYLLRRLRPRLEQALGKDLVGRIFTENPGRAFGVEWR` ?
// result failed
